Test system: HOP-62 NSCLC
Test: NCI tumour cell line growth inhibition, 48 h; in the data active means GI50 below about 0.43 µM; inactive means the rest
Parameter call: string, one of yes (1) (active), no (0) (inactive)

Task: For CCCCOC(=O)c1ccc(NC(=O)CCl)cc1 , which call appears in the assay record?
Output: no (0)

Task: For COc1cc(-c2csc(NC(=O)Nc3cc(C(F)(F)F)cc(C(F)(F)F)c3)n2)cc(OC)c1OC , which call appears in the assay record?
Output: no (0)

Task: For N#Cc1ccc(C2C3=C(CCCC3=O)OC3=C2C(=O)c2ccccc2C3=O)cc1 (stereo not given) , which call appears in the assay record?
Output: no (0)

Task: For CCOc1ccc2nc(-c3cccc(OCC(=O)NC(C)C)c3)nc(Nc3ccc(-c4cn[nH]c4)cc3)c2c1 , which call appears in the assay record?
Output: yes (1)

Consider the record given below.
Task: For O=c1oc(-c2ccccc2)cc2cccc(O)c12 , which call appears in the assay record?
Output: no (0)

====

System: EKVX NSCLC
Assay: NCI tumour cell line growth inhibition, 48 h
OUTCOME MEASURE: TGI

Tested on EKVX NSCLC, the item COc1cc(C=O)c(-c2cc3c(cc2C2(C)OCCS2)OCO3)c(OC)c1OC (configuration not stated) showed TGI equal to > 97 µM

Tested on EKVX NSCLC, the item COc1cc([C@@H]2c3cc4c(cc3[C@@H](N=Cc3ccc(C(=O)O[C@@H](C(=O)O[C@H]5C[C@@]6(O)[C@@H](OC(=O)c7ccccc7)[C@@H]7[C@]8(OC(C)=O)CO[C@@H]8C[C@H](O)[C@@]7(C)C(=O)[C@H](OC(C)=O)C(=C5C)C6(C)C)[C@@H](NC(=O)c5ccccc5)c5ccccc5)cc3)[C@H]3COC(=O)[C@H]23)OCO4)cc(OC)c1O showed TGI equal to > 47 µM

Tested on EKVX NSCLC, the item CC(=O)OC1CC[C@@]2(C)C(CC[C@]3(C)C2CC=C2[C@@H]4CC(C)(C)CCC4(C)CCC23C)[C@@]1(C)C(=O)O (some centres not stated) showed TGI equal to 39.5 µM

Tested on EKVX NSCLC, the item COc1ccc2c3c(c4ccccc4cc13)C(=O)N(CCN(C)CCN)C2=O showed TGI equal to 2.06 µM

Tested on EKVX NSCLC, the item O=C(CCc1ccc(O)c(O)c1)NCCc1ccc(O)c(O)c1 showed TGI equal to > 100 µM

***
Tested on EKVX NSCLC, the item COc1ccc(-c2cn(-c3cccc(C(=O)/C=C/c4ccc(O)c(OC)c4)c3)c(=O)[nH]2)cc1 showed TGI equal to > 100 µM

Tested on EKVX NSCLC, the item CCOC(=O)C1C[C@H]2CO[C@H](c3ccccc3)N2C1=O (some centres not stated) showed TGI equal to > 100 µM

====

Listed here are compounds together with their documented TGI.
System: UACC-257 melanoma
Assay: NCI tumour cell line growth inhibition, 48 h

Worked examples follow.
Tested on UACC-257 melanoma, the item COc1cc([C@H]2c3cc4c(cc3[C@H](NCc3ccc([N+](=O)[O-])cc3)C3COC(=O)[C@H]32)OCO4)cc(OC)c1O (stereo not given in full) showed TGI equal to > 81.8 µM

Tested on UACC-257 melanoma, the item COc1ccc2oc(=Nc3ccc(F)cc3)c(C(N)=O)cc2c1 showed TGI equal to > 100 µM

Tested on UACC-257 melanoma, the item COc1ccc(/C=N\NC(=O)Nc2cccc3ccccc23)cc1 showed TGI equal to > 100 µM

Tested on UACC-257 melanoma, the item N#CCSc1c(-c2ccccc2)c(=O)n(-c2ccccc2)c(=S)n1-c1ccccc1 showed TGI equal to > 100 µM

# evaluate next
Tested on UACC-257 melanoma, the item O=C1NC(=O)C(c2ccc(Cl)cc2)=C1Nc1ccc(Cl)c(C(=O)O)c1 showed TGI equal to > 25 µM

====

Tested on: SN12C renal
Assay: NCI tumour cell line growth inhibition, 48 h
Listed here are compounds together with their documented GI50.

Tested on SN12C renal, the item COc1cc(-c2csc(NC(=O)Nc3cc(C(F)(F)F)cc(C(F)(F)F)c3)n2)cc(OC)c1OC showed GI50 equal to 3 µM

Tested on SN12C renal, the item N#Cc1ccc(C2C3=C(CCCC3=O)OC3=C2C(=O)c2ccccc2C3=O)cc1 (stereo not given) showed GI50 equal to 1.16 µM

Tested on SN12C renal, the item CN1C(=O)C(=Cc2cn(Cc3ccccc3)c3ccccc23)C(=O)N(C)C1=O showed GI50 equal to 54.8 µM

Tested on SN12C renal, the item O=C(/C=C/c1cccc([N+](=O)[O-])c1)c1ccc(O)c(CN2CCN(c3cc4c(cc3F)c(=O)c(C(=O)O)cn4C3CC3)CC2)c1 showed GI50 equal to 1.75 µM

***
Tested on SN12C renal, the item CN1CCN(C(=O)c2c(NC(=O)NS(=O)(=O)c3ccccc3)sc3c2CCCCC3)CC1 showed GI50 equal to 25 µM

====

Listed here are compounds together with their documented TGI.
Test system: SK-MEL-28 melanoma
Test: NCI tumour cell line growth inhibition, 48 h

Worked examples follow.
Tested on SK-MEL-28 melanoma, the item O=c1nc(NC(c2ccccc2)(c2ccccc2)c2ccccc2)ccn1CCO showed TGI equal to > 100 µM

Tested on SK-MEL-28 melanoma, the item O=c1cc(-c2ccccc2)nc(/C=C(\O)c2ccncc2)n1-c1ccccc1 showed TGI equal to > 100 µM

Tested on SK-MEL-28 melanoma, the item COC(=O)c1c(O)ccc2c1c1c(n2Cc2ccccn2)C(=O)c2ccccc2C1=O showed TGI equal to 99.2 µM

Tested on SK-MEL-28 melanoma, the item COP(=O)(OC)c1ccc(NCc2cc(O)ccc2O)cc1 showed TGI equal to > 70.2 µM

***
Tested on SK-MEL-28 melanoma, the item Cn1c(/C=C(\C#N)c2cccc(C(F)(F)F)c2)nc2c(N3CCOCC3)nc(Cl)nc21 showed TGI equal to 2.86 µM

====

Tested on: MCF7 breast
Assay: NCI tumour cell line growth inhibition, 48 h
OUTCOME MEASURE: TGI

Worked examples follow.
Tested on MCF7 breast, the item Cc1ccc(C(=O)N2CCN(C(=O)c3ccc(C)cc3)c3ccccc32)cc1 showed TGI equal to > 100 µM

Tested on MCF7 breast, the item Cc1nc2c(Cl)cc(Cl)cc2c(Cl)c1CCCl showed TGI equal to > 100 µM

Tested on MCF7 breast, the item CSC1(SC)N2Cc3ccccc3N=C2C1(c1ccccc1)c1ccccc1 showed TGI equal to > 87.9 µM

Tested on MCF7 breast, the item COc1ccc2c(c1)CC1(O)COc3cc(OC)ccc3C1O2 (stereo not given) showed TGI equal to > 100 µM

Tested on MCF7 breast, the item COc1cc(O)c2c(=O)c(OC)c(-c3ccc4c(c3)OCO4)oc2c1OC showed TGI equal to > 50 µM

***
Tested on MCF7 breast, the item CC1(C)N=C(N)N=C(N)N1c1ccc(CCc2ccc(Cl)cc2S(=O)(=O)F)c(Cl)c1 showed TGI equal to 18.9 µM

Tested on MCF7 breast, the item CCCOC(=O)N[C@H]1CCc2cc(OC)c(OC)c(OC)c2-c2ccc(SC)c(=O)cc21 showed TGI equal to > 100 µM

Tested on MCF7 breast, the item COc1ccc(-c2nnc(CCCCCCCCc3nnc(-c4ccc(OC)cc4)n3N)n2N)cc1 showed TGI equal to > 100 µM

Tested on MCF7 breast, the item O=C(Cc1ccccc1)N=Nc1c(O)[nH]c2ccccc12 showed TGI equal to > 100 µM

Tested on MCF7 breast, the item COc1ccc2c(c1)c1nc3cc(C)c(C)cc3nc1n2CCN(C)C showed TGI equal to 1.42 µM

====

Tested on: OVCAR-8 ovarian
Test: NCI tumour cell line growth inhibition, 48 h; in the data active = GI50 below about 0.43 µM; inactive = the rest
Parameter call: string, one of true (1) (active), false (0) (inactive)

Use these answered entries as a reference point.
Task: For O=C(/C=C/c1cccc([N+](=O)[O-])c1)c1ccc(O)c(CN2CCN(c3cc4c(cc3F)c(=O)c(C(=O)O)cn4C3CC3)CC2)c1 , which call appears in the assay record?
Output: false (0)

Task: For COc1ccc2c3c(c4ccccc4cc13)C(=O)N(CCN(C)CCN)C2=O , which call appears in the assay record?
Output: true (1)

Task: For COc1ccc(SC2c3ccc(C)cc3Oc3nc(N)c(C#N)c(N)c32)cc1 (stereo not given) , which call appears in the assay record?
Output: false (0)

Task: For O=c1oc(-c2ccccc2)cc2cccc(O)c12 , which call appears in the assay record?
Output: false (0)

Consider the record given below.
Task: For CN[C@@H]1C[C@H]2O[C@@](C)([C@@H]1OC)n1c3ccccc3c3c4c(c5c6ccccc6n2c5c31)C(=O)N[C@H]4O , which call appears in the assay record?
Output: true (1)
